B1: Chromodomain-helicase-DNA-binding protein 4, residues 444 to 496; numbered along this chain, Q14839 (parent)
chain: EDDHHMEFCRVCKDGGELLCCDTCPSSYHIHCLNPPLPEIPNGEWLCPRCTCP

Variants of: B1
Test: abundance fitness (aPCA) (normalised: wild type 0, dead -1); higher = more abundant; growth selection in yeast, the domain comes from the species named
Details: Homo sapiens
Assign 1 whenever abundance fitness does not fall below -0.4; assign 0 whenever it does.

- MUTANT LABEL: "E17C"
  CLASS NAME: 1
- MUTANT LABEL: "E17G"
  CLASS NAME: 1
- MUTANT LABEL: "I30F"
  CLASS NAME: 1
- MUTANT LABEL: "C47H"
  CLASS NAME: 1
- MUTANT LABEL: "G16H"
  CLASS NAME: 0
- MUTANT LABEL: "C21N"
  CLASS NAME: 0
- MUTANT LABEL: "H31L"
  CLASS NAME: 1
- MUTANT LABEL: "I40P"
  CLASS NAME: 1
- MUTANT LABEL: "E39I"
  CLASS NAME: 1
- MUTANT LABEL: "N34D"
  CLASS NAME: 1

Values from the Human Domainome abundance scans (Beltran et al. 2025)
